From: ChEMBL document CHEMBL4368938

- systemTested: Cathepsin S (Homo sapiens, UniProt P25774)
- Sequence (P25774 whole entry): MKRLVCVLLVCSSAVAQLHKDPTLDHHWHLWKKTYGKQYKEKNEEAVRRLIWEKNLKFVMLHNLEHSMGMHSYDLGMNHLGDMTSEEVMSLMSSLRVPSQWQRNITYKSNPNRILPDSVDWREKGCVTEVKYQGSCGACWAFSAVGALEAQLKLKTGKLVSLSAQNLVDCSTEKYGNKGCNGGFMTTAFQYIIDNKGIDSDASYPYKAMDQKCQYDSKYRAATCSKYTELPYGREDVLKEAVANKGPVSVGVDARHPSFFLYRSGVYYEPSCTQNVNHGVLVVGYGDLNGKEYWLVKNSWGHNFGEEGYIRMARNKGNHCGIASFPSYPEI
- methodSummary: Inhibition of recombinant human cathepsin S expressed in Escherichia coli
measuredProperty: pIC50
Scale: pIC50 equals -log10([C]), with [C] in mol/L.

Entry CC(C)CC(C(=O)N(C)N(C)C#N)c1cccc(-c2ccc(S(C)(=O)=O)cc2)c1 (racemic) , system Cathepsin S (Homo sapiens, UniProt P25774): what pIC50 was measured?
5.99

---

- systemTested: Procathepsin L (Homo sapiens, UniProt P07711)
- Sequence (P07711 whole entry): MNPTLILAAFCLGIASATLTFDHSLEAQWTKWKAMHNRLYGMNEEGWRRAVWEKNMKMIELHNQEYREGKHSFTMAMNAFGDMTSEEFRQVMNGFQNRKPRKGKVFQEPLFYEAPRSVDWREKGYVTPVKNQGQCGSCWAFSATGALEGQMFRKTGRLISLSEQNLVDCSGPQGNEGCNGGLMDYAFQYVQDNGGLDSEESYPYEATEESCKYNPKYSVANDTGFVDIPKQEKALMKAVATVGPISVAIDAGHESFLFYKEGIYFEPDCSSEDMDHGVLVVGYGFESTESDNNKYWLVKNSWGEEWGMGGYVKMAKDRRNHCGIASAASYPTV
measuredProperty: Ki (nM)
// return numeric value only (unit: nM, not printed)

# returns recorded Ki (system: Procathepsin L (Homo sapiens, UniProt P07711)) for CC(C)CC(C(=O)N(C)N(C)C#N)c1cccc(-c2ccc(S(C)(=O)=O)cc2)c1 (racemic)
406

---

- systemTested: Cathepsin K (Homo sapiens)
- Sequence (P43235 whole entry): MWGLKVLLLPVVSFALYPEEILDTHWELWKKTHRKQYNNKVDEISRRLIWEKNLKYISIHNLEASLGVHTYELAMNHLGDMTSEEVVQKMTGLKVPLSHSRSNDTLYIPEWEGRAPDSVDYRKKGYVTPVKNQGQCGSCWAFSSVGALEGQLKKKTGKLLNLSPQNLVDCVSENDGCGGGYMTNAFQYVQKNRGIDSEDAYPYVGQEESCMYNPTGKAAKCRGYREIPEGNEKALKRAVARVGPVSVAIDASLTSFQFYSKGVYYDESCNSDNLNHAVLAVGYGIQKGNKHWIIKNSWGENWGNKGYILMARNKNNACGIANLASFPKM
- methodSummary: Inhibition of recombinant His-tagged human cathepsin K expressed in Escherichia coli
measuredProperty: IC50 (µM)
Give your result in µM as a bare value.

I have this compound here, CC(C)CC(C(=O)N(C)N(C)C#N)c1cccc(-c2ccc(S(C)(=O)=O)cc2)c1 (racemic) , and I need its recorded IC50.
0.015

---

- systemTested: Cathepsin S (Homo sapiens)
- methodSummary: Inhibition of recombinant human cathepsin S expressed in Escherichia coli
measuredProperty: Ki (nM)
Quick note: give the figure in nM, leave out the unit.

Hello, I am looking for reported Ki with Cathepsin S (Homo sapiens) for CC(C)CC(C(=O)N(C)N(C)C#N)c1cccc(-c2ccc(S(C)(=O)=O)cc2)c1 (racemic) . Could you help?
735

---

- systemTested: UniProt:P43235
- methodSummary: Inhibition of recombinant His-tagged human cathepsin K expressed in Escherichia coli
measuredProperty: Ki (nM)
Give the quantity in nM, number only.

State the recorded Ki for this entry: CC(C)CC(C(=O)N(C)N(C)C#N)c1cccc(-c2ccc(S(C)(=O)=O)cc2)c1 (racemic)
7.21

---

- systemTested: Procathepsin L (Homo sapiens)
measuredProperty: pIC50
The meaning of pIC50 here: minus log10 of the concentration in molar units.

Can you look up pIC50 on Procathepsin L (Homo sapiens) for CC(C)CC(C(=O)N(C)N(C)C#N)c1cccc(-c2ccc(S(C)(=O)=O)cc2)c1 (racemic) ?
5.57
